system: MIWI (PIWIL1) piRISC loaded with piRNA #1 (30 nt); assay: pre-steady-state target cleavage rate (min^-1); higher = faster piRNA-guided slicing of the target; details: guide: piRNA #1 5'p-UGAGGUAGUAGGUUGUAUAGUAUCCAGAGG; auxiliary factor: 500 nM mouse GTSF1;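 also: 1 nM active piRISC with 0.1 nM target library at 33 °C single turnover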
In all, about 6,200 sequences were measured (“pre-steady-state target cleavage rate”: median about 0.29, highest 2% from about 2 on). Only a selection was taken, and the highest values are over-represented in it overall.

Seq: GCUCUGGAUAAUAUACAACCUACUACCUCA
pre-steady-state target cleavage rate: 2.07

Seq: GCUCUGGAUACUAAUACAACCUACUACCUCA
pre-steady-state target cleavage rate: 1.49

Seq: GGAGACGAUACAAUACAACCUACUUCCUCA
pre-steady-state target cleavage rate: 0.408

Seq: GGAGACCUAAGUAUUCAACCUACUACCUCA
pre-steady-state target cleavage rate: 0.00289

Seq: GGAGUGGAUACUUUACAACCUACUACCUCA
pre-steady-state target cleavage rate: 1.53

Seq: GGAGACCUAUCUAUACAACCUACUCACCUCA
pre-steady-state target cleavage rate: 0.537

Seq: CCUCUGGAUAAUAUACAACCUACUACCUCA
pre-steady-state target cleavage rate: 2.06

====

tested on: MIWI (PIWIL1) piRISC loaded with piRNA #1 (30 nt); test: pre-steady-state target cleavage rate (min^-1); MIWI and MILI are mouse PIWI proteins and EfPiwi is from a freshwater sponge; tags in brackets are library labels; higher = faster piRNA-guided slicing of the target; conditions: guide: piRNA #1 5'p-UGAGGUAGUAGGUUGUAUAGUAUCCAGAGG; auxiliary factor: 500 nM mouse GTSF1;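 also: 1 nM active piRISC with 0.1 nM target library at 33 °C single turnover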
In all, about 6,200 sequences were measured (“pre-steady-state target cleavage rate”: median about 0.29, highest 2% from about 2 on). Shown is part of a subset that was picked to be rich in the highest values.
Catalogue of sequences with associated pre-steady-state target cleavage rate

Seq: GGGCUGGAUACUAUACAACCUACUACCUCA
pre-steady-state target cleavage rate: 1.9

Seq: GCGCUGGAUACUAUACAACCUACUACCUCA
pre-steady-state target cleavage rate: 1.85

Seq: GGACUGGAUACUAUACAAGGUACUACCUCA
pre-steady-state target cleavage rate: 0.331

Seq: GGUCUUGAUACUAUACAACCUACUACCUCA
pre-steady-state target cleavage rate: 1.87

Seq: GGUCCUGGAUACUAUACAACCUACUACCUCA
pre-steady-state target cleavage rate: 1.97

Seq: GCUCUGGAUAGAUUACAACCUACUACCUCA
pre-steady-state target cleavage rate: 0.735

Seq: GGAGACGAUACUAUACAACAUACUACCUCA
pre-steady-state target cleavage rate: 1.16

Seq: GGAGUGGAUACUAUACUACCUACUACCUGA
pre-steady-state target cleavage rate: 0.329

Seq: GGAGUUGAUACUAUACAACCUACUACCUCA
pre-steady-state target cleavage rate: 1.97

Seq: GGACAGGAUACUAUUCAACCUACUACCUCA
pre-steady-state target cleavage rate: 1.69

Seq: GGUCGUGGAUACUAUACAACCUACUACCUCA
pre-steady-state target cleavage rate: 1.72

Seq: GGAGAGGAUACUAUACAACCUACUGACCUCA
pre-steady-state target cleavage rate: 0.576

Seq: GGACUUGAUACUAUACAACCUACUACCUCA
pre-steady-state target cleavage rate: 1.73

Seq: GGAGUGCAUAGUAUACAACCUACUACCUCA
pre-steady-state target cleavage rate: 0.659

Seq: GGAGACCAUACUAUUCAACCUACUACCACA
pre-steady-state target cleavage rate: 1.05

Seq: GGAGACCAUACUUACAACCUACUACCUCA
pre-steady-state target cleavage rate: 0.269

Seq: GCUCAGGAUACUAUUCAACCUACUACCUCA
pre-steady-state target cleavage rate: 2.09

Seq: GGAGACCUAUCUUUACAACCUACUACCUGA
pre-steady-state target cleavage rate: 0.101

Seq: GGAGUGGAUACUGAUACAACCUACUACCUCA
pre-steady-state target cleavage rate: 1.3

Seq: GCUCUGGAUACUAUACAAGCUACUAGCUCA
pre-steady-state target cleavage rate: 0.745

Seq: CCUCUGGAUACUAUACAACCACUACCUCA
pre-steady-state target cleavage rate: 0.033

Seq: GCUCUUGAUACUAUACAACCUACUACCUCA
pre-steady-state target cleavage rate: 2.03

Seq: GGAGACCAAACUAUACAACCUAGUACCUCA
pre-steady-state target cleavage rate: 0.226

Seq: GCUCUGGAUACUAAAGAACCUACUACCUCA
pre-steady-state target cleavage rate: 1.17

Seq: CCUCUGGAUACUAUACAUGGUACUACCUCA
pre-steady-state target cleavage rate: 0.0547

Seq: GGAGACCUAACUAUACAACCUACUACCCCA
pre-steady-state target cleavage rate: 0.867

Seq: CCUCAGGAUACUAUUCAACCUACUACCUCA
pre-steady-state target cleavage rate: 2.22

Seq: CCUCUUGAUACUAUACAACCUACUACCUCA
pre-steady-state target cleavage rate: 2.33
